Dual specificity protein kinase CLK1 (Homo sapiens): recorded pIC50 for assorted molecules
Sequence (P49759 whole entry): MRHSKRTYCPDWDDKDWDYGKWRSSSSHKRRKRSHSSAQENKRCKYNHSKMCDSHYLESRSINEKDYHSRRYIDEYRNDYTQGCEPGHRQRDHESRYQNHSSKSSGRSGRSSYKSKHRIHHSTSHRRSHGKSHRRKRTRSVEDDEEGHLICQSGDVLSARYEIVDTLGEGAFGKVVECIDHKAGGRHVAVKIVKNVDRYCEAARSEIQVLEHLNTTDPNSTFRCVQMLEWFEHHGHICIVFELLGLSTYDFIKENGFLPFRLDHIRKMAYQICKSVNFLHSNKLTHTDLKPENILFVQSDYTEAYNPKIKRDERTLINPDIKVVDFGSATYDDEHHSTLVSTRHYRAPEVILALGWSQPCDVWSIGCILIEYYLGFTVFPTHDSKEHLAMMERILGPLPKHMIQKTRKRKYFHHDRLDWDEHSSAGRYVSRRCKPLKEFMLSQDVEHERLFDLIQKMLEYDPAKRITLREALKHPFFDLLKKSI
Units for pIC50: none; it is -log10 of a concentration expressed in mol/L.

Fill in reported pIC50 for this entry: O=C1NC(NC2CCCCC2)=N/C1=C\c1ccc2[nH]cnc2c1
6.05

Fill in reported pIC50 for this entry: Cn1cnc2ccc(/C=C3\N=C(NC4CCCCC4)NC3=O)cc21
7.70

Fill in reported pIC50 for this entry: CC(C)C[C@H](CF)NC1=N/C(=C\c2ccc3ncsc3c2)C(=O)N1
8.05

Fill in reported pIC50 for this entry: Cn1ncc2cc(/C=C3\N=C(NC4CCCCCC4)NC3=O)ccc21
5.91

Fill in reported pIC50 for this entry: O=C1NC(NC23CC4CC(CC(C4)C2)C3)=N/C1=C\c1ccc2c(c1)OCO2
7.77

Fill in reported pIC50 for this entry: O=C1NC(NC23CC4CC(CC(C4)C2)C3)=N/C1=C\c1ccc2[nH]cnc2c1
8.30

---

Field: pIC50. Provide a value for each of the molecules that follow.
Units for pIC50: none; it is -log10 of a concentration expressed in mol/L.

Quote pIC50 with test system Glycogen synthase kinase-3 beta (Homo sapiens) for COC(=O)C1(NC2=N/C(=C\c3ccc4ncsc4c3)C(=O)N2)C2CC3CC(C2)CC1C3 (stereo not given)
6.18

Quote pIC50 with test system Glycogen synthase kinase-3 beta (Homo sapiens) for O=C1NC(NC23CC4CC(CC(C4)C2)C3)=N/C1=C\c1ccc2ncoc2c1
6.69

Quote pIC50 with test system Glycogen synthase kinase-3 beta (Homo sapiens) for O=C1NC(N[C@H]2C3CC4CC2C[C@](O)(C4)C3)=N/C1=C\c1ccc2ncsc2c1
5.27

Quote pIC50 with test system Glycogen synthase kinase-3 beta (Homo sapiens) for O=C1NC(N[C@@H](CO)CC2CCCC2)=N/C1=C\c1ccc2ncsc2c1
5.54

Quote pIC50 with test system Glycogen synthase kinase-3 beta (Homo sapiens) for O=C1NC(N[C@@H](CO)CC2CCC2)=N/C1=C\c1ccc2ncsc2c1
5.62

Quote pIC50 with test system Glycogen synthase kinase-3 beta (Homo sapiens) for O=C1NC(NCCc2ccccn2)=N/C1=C\c1ccc2ncsc2c1
5.43

Quote pIC50 with test system Glycogen synthase kinase-3 beta (Homo sapiens) for O=C1NC(NC(CF)c2ccccc2)=N/C1=C\c1ccc2ncsc2c1 (racemic)
6.02

Quote pIC50 with test system Glycogen synthase kinase-3 beta (Homo sapiens) for O=C1NC(Nc2ccccc2)=N/C1=C\c1ccc2c(c1)OCO2
6.22

Quote pIC50 with test system Glycogen synthase kinase-3 beta (Homo sapiens) for CC1(NC2=N/C(=C\c3ccc4ncsc4c3)C(=O)N2)CCNC1=O (racemic)
5.20

---

Dual specificity tyrosine-phosphorylation-regulated kinase 3 (Homo sapiens): recorded pIC50 for assorted compounds
Sequence (O43781 whole entry): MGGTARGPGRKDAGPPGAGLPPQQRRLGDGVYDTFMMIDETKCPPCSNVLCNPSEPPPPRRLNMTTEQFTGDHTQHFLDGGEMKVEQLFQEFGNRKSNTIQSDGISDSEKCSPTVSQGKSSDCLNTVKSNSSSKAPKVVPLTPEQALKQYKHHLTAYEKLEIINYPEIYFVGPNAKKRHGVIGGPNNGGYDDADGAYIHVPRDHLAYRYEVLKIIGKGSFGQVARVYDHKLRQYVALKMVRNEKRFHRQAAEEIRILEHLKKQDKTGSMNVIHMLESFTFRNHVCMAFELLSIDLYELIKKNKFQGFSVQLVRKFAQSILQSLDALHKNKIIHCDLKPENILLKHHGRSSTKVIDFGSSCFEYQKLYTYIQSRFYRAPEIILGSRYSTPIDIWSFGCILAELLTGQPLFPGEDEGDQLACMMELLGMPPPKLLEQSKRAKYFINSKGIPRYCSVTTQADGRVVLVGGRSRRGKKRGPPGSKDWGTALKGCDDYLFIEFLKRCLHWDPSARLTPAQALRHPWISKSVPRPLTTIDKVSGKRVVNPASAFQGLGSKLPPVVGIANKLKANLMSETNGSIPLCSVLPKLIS
Units for pIC50: none; it is -log10 of a concentration expressed in mol/L.

Fill in reported pIC50 for this entry: CO[C@H]1CC[C@H](NC2=N/C(=C\c3ccc4ncsc4c3)C(=O)N2)CC1
5.72

Fill in reported pIC50 for this entry: COC(CNC1=N/C(=C\c2ccc3ncsc3c2)C(=O)N1)c1ccccc1 (racemic)
5.82

Fill in reported pIC50 for this entry: O=C1NC(NC2CCCCC2)=N/C1=C\c1ccc2c(c1)OCO2
5.68

Fill in reported pIC50 for this entry: O=C1NC(NC2CCOCC2)=N/C1=C\c1ccc2ncsc2c1
5.78

Fill in reported pIC50 for this entry: O=C1NC(N[C@@H]2CCCC[C@@H](O)C2)=N/C1=C\c1ccc2ncsc2c1 (racemic)
6.15

Fill in reported pIC50 for this entry: CN1CCC(NC2=N/C(=C\c3ccc4ncsc4c3)C(=O)N2)CC1
6.19

Fill in reported pIC50 for this entry: O=C1NC(NCC(O)Cc2ccccc2)=N/C1=C\c1ccc2ncsc2c1 (racemic)
5.93

Fill in reported pIC50 for this entry: O=C1NC(NC2CCCNC2=O)=N/C1=C\c1ccc2ncsc2c1 (racemic)
5.55

Fill in reported pIC50 for this entry: O=C1NC(NC2COC2)=N/C1=C\c1ccc2ncsc2c1
5.84

Fill in reported pIC50 for this entry: CN1CCC2(CC1)CC(NC1=N/C(=C\c3ccc4ncsc4c3)C(=O)N1)C2
6.39

Fill in reported pIC50 for this entry: O=C1CC[C@H](NC2=N/C(=C\c3ccc4ncsc4c3)C(=O)N2)CN1
6.46

Fill in reported pIC50 for this entry: COC(=O)[C@@H](NC1=N/C(=C\c2ccc3ncsc3c2)C(=O)N1)C(C)O (stereo partly specified)
6.52

Fill in reported pIC50 for this entry: O=C1NC(NC2CC3(CCC3)C2)=N/C1=C\c1ccc2ncsc2c1
6.06

Fill in reported pIC50 for this entry: CN(C)CC(NC1=N/C(=C\c2ccc3ncsc3c2)C(=O)N1)c1ccccc1 (racemic)
5.82

Fill in reported pIC50 for this entry: O=C1NC(NC2CCCCOC2)=N/C1=C\c1ccc2ncsc2c1 (racemic)
6.31

Fill in reported pIC50 for this entry: O=C1NC(N[C@H]2C3CC4CC2C[C@](O)(C4)C3)=N/C1=C\c1ccc2ncsc2c1
6.91

Fill in reported pIC50 for this entry: O=C1NC(NC2CCCCC2)=N/C1=C\c1ccc2ncsc2c1
6.32

Ref: ChEMBL document CHEMBL5360622
